- Test system: castrated (CX) immature male rats
- Assay Explanation: Systemic androgenic (agonistic) activity in orchidectomized (CX) immature male rats
- Assay type: in vivo, rat
- Test Context: 0.1 mg/rat/po, 7 days, seminal vesicles weight
Reported CX Agonistic activity % Stimulation SV by item:
Field format: number, assumed %, no unit text.

// CX Agonistic activity % Stimulation SV lookup, key: Cc1c(N2C(=O)C(C)(C)N(CCCOc3ccc(-c4ccncc4)cc3C(F)(F)F)C2=S)ccc(C#N)c1Cl [EM-8773]
30

// CX Agonistic activity % Stimulation SV lookup, key: Cc1c(N2C(=O)C(C)(C)N(CCCOc3ccc(-c4cccnc4)cc3)C2=S)ccc(C#N)c1Cl [EM-8656]
24

// CX Agonistic activity % Stimulation SV lookup, key: CC1(C)C(=O)N(c2ccc(C#N)c(C(F)(F)F)c2)C(=S)N1CCCOc1ccc2ncccc2c1 [EM-8990]
1

// CX Agonistic activity % Stimulation SV lookup, key: Cc1c(N2C(=O)N(CCOc3ccc(-c4ccncc4)cc3)C(C)(C)C2=O)ccc(C#N)c1Cl [EM-9337]
17
